# Tested on: MS2 coat protein
# protocolNotes: apparent KD of MS2 coat protein; designed switch direction (-1 OFF switch, 1 ON switch): -1; higher = weaker reporter binding
# appliedConditions: input ligand: FMN 200 uM
experimentalReadout: apparent KD of MS2 coat protein (nM)
Answers are plain numbers, in nM.

{"columns": ["residueSequence", "unitString", "dataValue"],
 "data": [
  ["UUUUGGCAGGUAAUUAUUAACAUGAGGAUCACCCAUGUGCAUCCAAAAUUACUUUUAGAUCAAGCUCGUCUUAUAUA [JR_STOV1_Sub088] (Eterna round: R97, puzzle: Sensor, turn-off variant 1)", "nM", 34],
  ["UAAACUUGCUUCCGAUCCUACAUGAGGAUCACCCAUGUGCUCGUCUUGUAUCGUACUGUGACGUUAGUCACGGUACG [mod my first] (Eterna round: R97, puzzle: Sensor, turn-off variant 1)", "nM", 477],
  ["GCACGGAGUGUAGGAUAUCUGUGCGAUUAGCUCAGAGAAGGACACAUGAGGAUCACCCAUGUGUUCCACGGAAACGUACCGUGC [Eli exng1 - 050] (Eterna round: R96, puzzle: Exclusion NG 1)", "nM", 11.2],
  ["CAUUAUGUUGAGGAUAUGCGCCGGCUCGCUGGCGCAGAAGGCGACACAUGAGGAUCACCCAUGUCAGUUCGCGA [salish99_ex6_r004_418] (Eterna round: R97, puzzle: Exclusion 6)", "nM", 13.3]
]}

From here, focus on the item given below.
Please tell me: apparent KD of MS2 coat protein of AUUAUGUUAGGAUAUGCUUAUGGUGGAUAGUCCAGUAUGGUGUAGAAGGGACAUGAGGAUCACCCAUGUGCUGA [EX4 #33] (Eterna round: R97, puzzle: Exclusion 4) , system MS2 coat protein?
35.2

---

# Test system: MS2 coat protein
# protocolNotes: apparent KD of MS2 coat protein; designed switch direction (-1 OFF switch, 1 ON switch): -1; higher = weaker reporter binding
# appliedConditions: input ligand: FMN 200 uM
experimentalReadout: apparent KD of MS2 coat protein (nM)
Answers are plain numbers, in nM.

{"columns": ["residueSequence", "experimentalReadout", "dataValue"],
 "data": [
  ["GCUGGUCGAGGAUAUGCAUUCGUGCUUCGGCACGUAAGGUCACAUGAGGAUCACCCAUGUAGAAGGCGACCAGC [E2/6-A1] (Eterna round: R97, puzzle: Exclusion 2)", "apparent KD of MS2 coat protein", 30.2],
  ["AACGUGUAAGGAUAUCUGCUUAUGCUCAGCGAUACGCUGAUAGAGAAGGUACAUGAGGAUCACCCAUGUUCCAA [EX4 A.17] (Eterna round: R97, puzzle: Exclusion 4)", "apparent KD of MS2 coat protein", 20.4],
  ["AGCUGGUCAGGAUAUUUGGAGGGACUCCAAUGGUCCACGACGGAGAAGGGACAUGAGGAUCACCCAUGUGGUCG [Eternabot (L2) Solution 13] (Eterna round: R97, puzzle: Exclusion 4)", "apparent KD of MS2 coat protein", 69.3],
  ["AGAAAACAUGAGGAUCACCCAUGUGAGGAUAUCGCGCUUAACAGGGUCACAGUGGUGUCGAGAAGGUGCCUGGG [Eternabot (L1) Solution 55] (Eterna round: R97, puzzle: Exclusion 1)", "apparent KD of MS2 coat protein", 144]
]}

From here, focus on the item given below.
I am curious: what apparent KD of MS2 coat protein value has been reported for AUGGGUCCUCUCGGAGCUACAUGAGGAUCACCCAUGUGUAUUGAGGAUAUCCACUGCUCAGGACGGGAGAAGGCAGUGUACUGU [Ex NG3 #87] (Eterna round: R96, puzzle: Exclusion NG 3) ?
51.4

The values you see were collected from the supplement of paper PMC9170038.
